Reference source: ChEMBL document CHEMBL2218924

Target: Serine/threonine-protein kinase 3 (Homo sapiens)
Details: at 10 µM
Category key, based on recorded residual activity: lo: < 30%; mid: ≥ 30% and < 80%; hi: ≥ 80%

Check out these entries, answers already filled in.
[[record]]
compound = "O=C1NC(=O)c2c1c1c3ccccc3[nH]c1n1cncc21"
label = "mid"

[[record]]
compound = "O=C(c1ccccc1)c1ccc(N2CCOCC2)cc1O"
label = "hi"

[[record]]
compound = "N#C/C(=C1/Nc2ccccc2S1)c1ccnc(NCCc2cccnc2)n1"
label = "mid"


[ask] Returns: class label. Input: O=C1Cc2c([nH]c3ccc(Br)cc23)-c2ccccc2N1
[reply] lo

---

Known residual activity of a selection of compounds
Biological target: Serine/threonine-protein kinase Sgk2 (Homo sapiens) (UniProt Q9HBY8)
Sequence (whole entry): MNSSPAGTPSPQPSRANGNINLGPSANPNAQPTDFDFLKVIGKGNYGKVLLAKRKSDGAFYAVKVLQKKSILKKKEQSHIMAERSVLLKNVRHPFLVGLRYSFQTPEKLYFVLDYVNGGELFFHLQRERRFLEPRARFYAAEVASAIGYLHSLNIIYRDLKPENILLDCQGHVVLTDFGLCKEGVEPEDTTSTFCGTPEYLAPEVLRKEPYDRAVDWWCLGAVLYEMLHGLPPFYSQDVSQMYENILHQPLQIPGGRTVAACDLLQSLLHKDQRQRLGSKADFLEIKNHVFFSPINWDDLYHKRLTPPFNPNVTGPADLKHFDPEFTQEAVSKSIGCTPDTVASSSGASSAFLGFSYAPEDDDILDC
Conditions: at 10 µM
The response must be a number in % with no trailing unit.

[[record]]
compound = "O=S(=O)(NCCNC/C=C/c1ccc(Br)cc1)c1cccc2cnccc12"
assay_metric = "residual activity"
measured_value = 30

[[record]]
compound = "N#C/C(=C\\c1ccc(O)c(O)c1)C(=O)NCc1ccccc1"
assay_metric = "residual activity"
measured_value = 17

[[record]]
compound = "NC(=O)c1ccc(-c2nc(-c3ccc4c(c3)OCCO4)c(-c3ccccn3)[nH]2)cc1"
assay_metric = "residual activity"
measured_value = 89


[ask] Name the recorded residual activity of the item O=C1Cc2c([nH]c3ccc([N+](=O)[O-])cc23)-c2ccccc2N1 in your answer.
[reply] 68

[ask] Name the recorded residual activity of the item O=S(=O)(c1cccc2cnccc12)N1CCCNCC1 in your answer.
[reply] 67

[ask] Name the recorded residual activity of the item COc1ccc(-c2cnc3c(-c4ccsc4)cnn3c2)cc1 in your answer.
[reply] 83

---

Biological target: MAP kinase-activated protein kinase 2 (Homo sapiens) (UniProt P49137)
Sequence (P49137 whole entry, looked up): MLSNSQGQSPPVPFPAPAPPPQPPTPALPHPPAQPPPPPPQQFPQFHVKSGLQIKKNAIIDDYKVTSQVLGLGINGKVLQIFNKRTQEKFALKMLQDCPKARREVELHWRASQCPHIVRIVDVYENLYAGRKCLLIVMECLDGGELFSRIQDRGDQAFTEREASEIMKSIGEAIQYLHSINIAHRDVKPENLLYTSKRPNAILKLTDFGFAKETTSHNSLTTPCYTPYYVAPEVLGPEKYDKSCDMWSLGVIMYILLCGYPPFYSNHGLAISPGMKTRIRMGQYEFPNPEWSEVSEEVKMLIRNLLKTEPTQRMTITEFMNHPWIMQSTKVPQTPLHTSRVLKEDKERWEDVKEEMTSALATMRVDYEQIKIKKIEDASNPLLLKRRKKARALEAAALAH
Conditions: at 10 µM
Assay metric: residual activity (%)
The response must be a number in % with no trailing unit.

[[record]]
molecule = "Nc1ncnc2c1c(-c1ccc(Oc3ccccc3)cc1)cn2C1CCCC1"
assay_metric = "residual activity"
measured_value = 77

[[record]]
molecule = "O=C(c1cc2cc(O)ccc2[nH]1)c1cc2cc(O)ccc2[nH]1"
assay_metric = "residual activity"
measured_value = 51


[ask] Name the recorded residual activity of the item O=C1NC(=O)c2c1c1c3ccccc3[nH]c1n1cncc21 in your answer.
[reply] 89

[ask] Name the recorded residual activity of the item CCCCc1c(-c2ccc(OC)cc2)[nH]c2nccnc12 in your answer.
[reply] 109

[ask] Name the recorded residual activity of the item CN(C)S(=O)(=O)c1ccc2c(c1)/C(=C/c1cc3c([nH]1)CCCC3)C(=O)N2 in your answer.
[reply] 92
